experimentSummary: Drug metabolism in mouse liver microsomes after 20 mins
Type: ADME, Microsome
testSettings: read-out: Drug metabolism
measurementType: metabolised at 20 min

{"columns": ["compound", "experimentalResult"],
 "data": [
  ["CC1(C)CC(NC2=NS(=O)(=O)[C@@H]3CCCC[C@@H]3O2)CC(C)(C)C1 (racemic)", "97%"],
  ["O=S1(=O)N=C(NC2CCCCC2)O[C@H]2CCCC[C@H]21 (racemic)", "19%"],
  ["CC1(C)OC(N[C@@H](CCO)c2ccccc2Cl)=NS(=O)(=O)C1(C)C", "52%"],
  ["CC1(C)OC(N[C@@H](CCO)c2ccc(F)cc2)=NS(=O)(=O)C1(C)C", "9%"],
  ["O=S1(=O)NC(=NC23CC4CC(CC2C4)C3)O[C@H]2CCCC[C@H]21 (mixture of isomers)", "65%"],
  ["O=S1(=O)N=C(NC2CCCCCCC2)O[C@H]2CCCC[C@H]21 (racemic)", "84%"],
  ["NC(=O)C[C@H](NC1=NS(=O)(=O)[C@@H]2CCCC[C@@H]2O1)c1ccccc1 (mixture of isomers)", "35%"],
  ["O=S1(=O)N=C(N[C@@H](CCCO)c2ccccc2)O[C@H]2CCCC[C@H]21", "78%"]
]}

---

experimentSummary: Drug metabolism in human liver microsomes after 20 mins
Type: ADME, Microsome
testSettings: read-out: Drug metabolism
measurementType: metabolised at 20 min (%)

{"columns": ["compound", "displayUnit", "experimentalResult"],
 "data": [
  ["O=S1(=O)N=C(N[C@@H](CCO)c2ccccc2)O[C@H]2CCCC[C@H]21 (mixture of isomers)", "%", 77],
  ["O=S1(=O)N=C(NC2CCCCC2)O[C@H]2CCCC[C@H]21 (racemic)", "%", 18],
  ["NC(=O)C[C@H](NC1=NS(=O)(=O)[C@@H]2CCCC[C@@H]2O1)c1ccccc1 (mixture of isomers)", "%", 47],
  ["O=S1(=O)N=C(NC2CCCCCC2)O[C@H]2CCCC[C@H]21 (racemic)", "%", 45],
  ["CC1(C)OC(N[C@@H](CCO)c2ccccc2Cl)=NS(=O)(=O)C1(C)C", "%", 25],
  ["CC1(C)OC(N[C@@H](CCO)c2ccccc2)=NS(=O)(=O)C1(C)C", "%", 4],
  ["CC1(C)OC(NC2CCCCC2)=NS(=O)(=O)C1(C)C", "%", 5],
  ["O=S1(=O)NC(=NC23CC4CC(CC(C4)C2)C3)O[C@H]2CCCC[C@H]21", "%", 91],
  ["CC1(C)CC(NC2=NS(=O)(=O)[C@@H]3CCCC[C@@H]3O2)CC(C)(C)C1 (racemic)", "%", 93],
  ["CC1(C)OC(N[C@@H](CCO)c2ccc(F)cc2)=NS(=O)(=O)C1(C)C", "%", 2],
  ["O=S1(=O)N=C(NC2CCCCCCC2)O[C@H]2CCCC[C@H]21 (racemic)", "%", 79],
  ["O=S1(=O)N=C(N[C@@H](CCCO)c2ccccc2)O[C@H]2CCCC[C@H]21", "%", 89],
  ["CC1(C)CCC(N=C2NS(=O)(=O)[C@@H]3CCCC[C@@H]3O2)CC1 (racemic)", "%", 55],
  ["O=S1(=O)NC(=NC23CCC(CC2)CC3)O[C@H]2CCCC[C@H]21", "%", 94],
  ["O=S1(=O)NC(=NC23CC4CC(CC2C4)C3)O[C@H]2CCCC[C@H]21 (mixture of isomers)", "%", 83],
  ["O=S1(=O)N=C(NC23CCC(O)(CC2)CC3)O[C@H]2CCCC[C@H]21 (mixture of isomers)", "%", 12]
]}

Cited source for all entries: ChEMBL document CHEMBL2407060
